Overview of reported apparent KD of MS2 coat protein across a group of sequences:
# Tested on: MS2 coat protein
# experiment-description: apparent KD of MS2 coat protein; designed switch direction (-1 OFF switch, 1 ON switch): 1; higher = weaker reporter binding
# assay-setup: Eterna round: R95; input ligand: microRNA oligo, concentration not stated
Return type: number; implicit unit nM.

Please review the following examples before continuing.
{"columns": ["ordered-residues", "quantity-unit", "value-reported"],
 "data": [
  ["CGGGUACAUGAGGAUCACCCAUGUUGGAGUAAUGCAGGAUAUGUGAGACGAGAUGAUAAAACAGAAGGGCAAGGAG [JR_SS!_Sub010] (puzzle: Same State 1)", "nM", 70.5],
  ["GGCUAUCGCAUUCGAUAGCUUAAGCAUGUACAUGAGGAUCACCCAUGUCAUGUACAGGCUUUUUGCUCGUACUUAUA (puzzle: Sensor for hsa-mir-208a)", "nM", 14.9],
  ["AUAAGGCAAGCUUUUUUCUCGUAGUGUAAACAUGAGGAUCACCCAUGUGCCCACCCUGGAUCUUUGAAUCGCAGAAC [Dianancete] (puzzle: Sensor for hsa-mir-208a)", "nM", 16.6],
  ["GGCUAUCGCGUACGAUAGCUUAAGCAUGUACAUGAGGAUCACCCAUGUCAUGUACAAGCUUUUUGCUCGGCUUAUUG (puzzle: Sensor for hsa-mir-208a)", "nM", 14.3],
  ["ACAAGCUUUUUAGGAAGAGAAGAAAGGGAACAUGAGGAUCACCCAUGUAAGUGGAAUGAAGAAGGAGCACGUCUUAU [JR_SHM208A_Sub096] (puzzle: Sensor for hsa-mir-208a)", "nM", 17.5],
  ["CCUUAACAUGAGGAUCACCCAUGUAACAAGGAGUAAGGAUAUACAUGGGAAAACAGUCAUGUAGAAGGUACAAAAG [Rexereon] (puzzle: Same State 1)", "nM", 11.8],
  ["UGCCAUUGUAUAUUGGUGCAAGCUUUUUGACAUGAGGAUCACCCAUGUACUCGUCUUAUGUGCAGUCCGUAGACUGC [JL-shm-2.23 Brourd mod] (puzzle: Sensor for hsa-mir-208a)", "nM", 13.5],
  ["GGAGCCGGCACCGAGGAUAUUCAUAUUAAAACAUGAGGAUCACCCAUGUAGAGCGAAAGCUCUUGGGAGAAGGCGGAUCGGCUCG [Xeonanis - 28] (puzzle: Same State 2)", "nM", 672],
  ["AGUCCAGCCUGAGCUGGACAAAAGCAUGUACAUGAGGAUCACCCAUGUUCAUGUACAAGCUUUUUGCUCGUCUUGUA [salish99_208a_r3_102x] (puzzle: Sensor for hsa-mir-208a)", "nM", 17.2],
  ["AAAGCACAUGAGGAUCACCCAUGUGGAAAUAACACAGGAUAUCUGACCGAAACUAAGGCGAGAGAAGGGUGACCUA [Engeerbi] (puzzle: Same State 1)", "nM", 62.8]
]}

## Input In one line, give reported apparent KD of MS2 coat protein of the entry AUAAGUUUGAUGCUCGUCUCUCCGUACAGACAUGAGGAUCACCCAUGUAGUCAGGAAGUAGCCUGGCCAGUAUGGCC [Berave] (puzzle: Sensor for hsa-mir-208a) .
## Output 16.6

## Input Give apparent KD of MS2 coat protein for the following sequence: GGUCCAGCCUGAGCUGGACAAAAGCAUGUACAUGAGGAUCACCCAUGUCAUGUACAAGCUUUUUGCUCGUCAAAAGG [Mat - hsa-mir-208a - 102] (puzzle: Sensor for hsa-mir-208a)
## Output 16

## Input Please give measured apparent KD of MS2 coat protein of the following entry: UCAAGCGUUUGGCUCGUUUUAUGUUUUGUACAUGAGGAUCACCCAUGUUUUGUACGAUCCAGUUAGAUGGUAUUUUG [JR_SHM208A_Sub039] (puzzle: Sensor for hsa-mir-208a)
## Output 93

## Input Give apparent KD of MS2 coat protein for AGUCCAGCGAAAGCUGGACAAAAGCAUGUACAUGAGGAUCACCCAUGUUCAUGUACAAGCUUUUUGUUCGUCUUAAA [JL mod - D95 - 14] (puzzle: Sensor for hsa-mir-208a)
## Output 13.4

## Input Indicate its recorded apparent KD of MS2 coat protein; the sequence in question is GUUAAACAUGAGGAUCACCCAUGUCAAUGUAGUCGAGGAUAUGGGUAGCCAUGAGGCGUACUAGAAGGCGAGGAGU [Mat - Same State 1 - Mod of JL - D19] (puzzle: Same State 1)
## Output 69.8

## Input For the sequence GGAGCCGGCACUGAGGAUAUUCAUAUUAAAACAUGAGGAUCACCCAUGUAGGCCAGAAGGCCAUGGGAGAAGGCAGGUCGGCCCG [Bibimoar - 7] (puzzle: Same State 2) , report apparent KD of MS2 coat protein.
## Output 211
